- System: MCF7
- PROCEDURE_TEXT: Antiproliferative activity against human MCF7 cells assessed as reduction in cell viability incubated for 72 hrs by MTT assay
- Assay type: functional, cell-based
- CONDITION_SUMMARY: MCF7, 72 h
pIC50: −log10 of the molar value.
READOUT_LABEL: pIC50

| COMPOUND_STRUCTURE | EXPERIMENTAL_RESULT |
| --- | --- |
| NC1(C(=O)N[C@@H](C(=O)NO)c2ccccc2)CCN(c2ncnc3[nH]ccc23)CC1 | 4.61 |

[1] CC(C)C[C@@H](NC(=O)C1(N)CCN(c2ncnc3[nH]ccc23)CC1)C(=O)NO
[2] NC1(C(=O)N[C@@H](CCO)c2ccc(Cl)cc2)CCN(c2nc[nH]c3nccc2-3)CC1
Challenge: Lower value for measured pIC50? Options: 1 , 2 Pick one and reply with its label.
Response given: 1

====

- SUBJECT_OF_TEST: RAC-alpha serine/threonine-protein kinase (Homo sapiens)
- Sequence (P31749 whole entry): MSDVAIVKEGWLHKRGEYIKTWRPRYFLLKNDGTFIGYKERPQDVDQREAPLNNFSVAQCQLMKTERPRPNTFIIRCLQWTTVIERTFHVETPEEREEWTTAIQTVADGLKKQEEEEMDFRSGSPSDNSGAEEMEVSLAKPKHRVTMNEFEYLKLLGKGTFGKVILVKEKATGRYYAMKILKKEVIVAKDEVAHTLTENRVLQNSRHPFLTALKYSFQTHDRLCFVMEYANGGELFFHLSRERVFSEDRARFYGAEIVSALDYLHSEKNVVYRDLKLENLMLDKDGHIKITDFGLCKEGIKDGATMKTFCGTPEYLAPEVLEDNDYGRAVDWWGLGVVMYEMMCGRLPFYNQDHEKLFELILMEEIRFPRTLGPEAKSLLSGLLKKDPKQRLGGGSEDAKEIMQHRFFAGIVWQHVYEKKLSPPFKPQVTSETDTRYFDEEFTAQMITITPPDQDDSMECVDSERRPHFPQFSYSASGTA
- CONDITION_SUMMARY: dose 200.0 nM, time 40.0 min
READOUT_LABEL: inhibition (%)

Past entries and their recorded results:
| COMPOUND_STRUCTURE | SUBJECT_OF_TEST | READOUT_LABEL | RESULT_UNIT | EXPERIMENTAL_RESULT |
| --- | --- | --- | --- | --- |
| CC(C)C[C@H](NC(=O)C1(N)CCN(c2ncnc3[nH]ccc23)CC1)C(=O)NO | RAC-alpha serine/threonine-protein kinase (Homo sapiens) | inhibition | % | 7 |
| CC(C)C[C@@H](NC(=O)N1CCN(c2ncnc3[nH]ccc23)CC1)C(=O)NO | RAC-alpha serine/threonine-protein kinase (Homo sapiens) | inhibition | % | 29 |
| NC1(C(=O)N[C@H](C(=O)NO)c2ccccc2)CCN(c2ncnc3[nH]ccc23)CC1 | RAC-alpha serine/threonine-protein kinase (Homo sapiens) | inhibition | % | 35 |

[1] NC1(C(=O)N[C@@H](Cc2c[nH]c3ccccc23)C(=O)NO)CCN(c2ncnc3[nH]ccc23)CC1
[2] CC(C)C[C@@H](NC(=O)C1(N)CCN(c2ncnc3[nH]ccc23)CC1)C(=O)NO
[3] CC(C)C[C@@H](NC(=O)C1CCN(c2ncnc3[nH]ccc23)CC1)C(=O)NO
[4] NC1(C(=O)N[C@H](Cc2ccccc2)C(=O)NO)CCN(c2ncnc3[nH]ccc23)CC1
Challenge: Task field, ranking: reported inhibition, descending order. Give your ranking as a list of the labels in the requested order.
Response given: 2, 4, 1, 3
(2: 43%, 4: 21%, 1: 5%, 3: 2%)

====

- SUBJECT_OF_TEST: RAC-alpha serine/threonine-protein kinase (Homo sapiens)
- CONDITION_SUMMARY: dose 200.0 nM, time 40.0 min
READOUT_LABEL: inhibition (%)

Here are 5 molecules together with their reported answers.
| COMPOUND_STRUCTURE | SUBJECT_OF_TEST | RESULT_UNIT | inhibition |
| --- | --- | --- | --- |
| CC(C)C[C@@H](NC(=O)NC1CCN(c2ncnc3[nH]ccc23)CC1)C(=O)NO | RAC-alpha serine/threonine-protein kinase (Homo sapiens) | % | 4 |
| NC1(C(=O)N[C@H](Cc2c[nH]c3ccccc23)C(=O)NO)CCN(c2ncnc3[nH]ccc23)CC1 | RAC-alpha serine/threonine-protein kinase (Homo sapiens) | % | 3 |
| NC1(C(=O)N[C@@H](Cc2ccccc2)C(=O)NO)CCN(c2ncnc3[nH]ccc23)CC1 | RAC-alpha serine/threonine-protein kinase (Homo sapiens) | % | 2 |
| O=C(N[C@H](Cc1ccccc1)C(=O)NO)C1CCN(c2ncnc3[nH]ccc23)CC1 | RAC-alpha serine/threonine-protein kinase (Homo sapiens) | % | 7 |
| NC1(C(=O)N[C@@H](C(=O)NO)c2ccccc2)CCN(c2ncnc3[nH]ccc23)CC1 | RAC-alpha serine/threonine-protein kinase (Homo sapiens) | % | 60 |

[A] O=C(NC1CCN(c2ncnc3[nH]ccc23)CC1)N[C@H](Cc1ccccc1)C(=O)NO
[B] O=C(NO)[C@@H](Cc1ccccc1)NC(=O)N1CCN(c2ncnc3[nH]ccc23)CC1
Challenge: Hi, I'm comparing A with B and wondering which one has the bigger number for inhibition. Any idea? # answer = label of selected item
Response given: B
